Tested on: SF-539 CNS
Experiment: NCI tumour cell line growth inhibition, 48 h
Assay readout: log10(TGI) (log10 of the value in µM)

Chemical smiles | Assay readout | Recorded result
CCCCCCCCCCCCOC(=S)NCCCC | log10(TGI) | 1.69
Cc1occc1C(=S)Nc1ccc(Cl)c(COC(C)(C)C)c1 | log10(TGI) | 1.49
CNC(=O)n1ccc2cc(Oc3ccnc(NC(=O)c4ccc(C5CCN(CCO)CC5)cc4)c3)c(OCCOC)cc21 | log10(TGI) | 0.41
CN(CCCN)CCCNc1nc2ccccc2c2[nH]c3ccccc3c12 | log10(TGI) | -0.03
CCSC1=CC(=O)c2nc3ccccc3c3ccnc1c23 | log10(TGI) | 1.12

* * *

Test system: OVCAR-8 ovarian
Assay: NCI tumour cell line growth inhibition, 48 h
TGI values, listed per item

Molecule | Tgt | TGI
O=C1CCSSCCC(=O)NCCN1 | OVCAR-8 ovarian | > 100 µM
O=c1cc(/C=C/c2ccc(O)c(O)c2)oc(/C=C/c2ccc(O)c(O)c2)c1 | OVCAR-8 ovarian | 22.4 µM
C=CCc1c2c(c(OC)c3ccoc13)C(=O)/C(=C/c1ccccc1OC)O2 | OVCAR-8 ovarian | > 100 µM
CC(C)(C)OC(=O)C#CC[C@H]1CCCC1/C=C/C(O)=C1/C(=O)NC(CCCNC(=O)OC(C)(C)C)C1=O (stereo partly specified) | OVCAR-8 ovarian | 31.6 µM
c1cc(-c2cn3ccsc3n2)ccn1 | OVCAR-8 ovarian | > 63.8 µM
CCCCN1CCN(c2ccc3nc(-c4ccc5nc(-c6ccc(C(F)(F)F)cc6)[nH]c5c4)[nH]c3c2)CC1 | OVCAR-8 ovarian | 2.64 µM
COc1cc(/C=C2\C(=O)N(C(=O)Cc3ccccc3)N=C2C)ccc1O | OVCAR-8 ovarian | > 100 µM
O=C(O)C1CC(c2ccc(F)cc2)=Nc2ccc(F)cc2S1 (stereo unspecified) | OVCAR-8 ovarian | > 100 µM
COC(=O)CCC(NC(=S)N/N=C(\C)c1nccs1)C(=O)OC (stereo unspecified) | OVCAR-8 ovarian | > 100 µM
CN(CCCN)CCCNc1nc2ccccc2c2[nH]c3ccccc3c12 | OVCAR-8 ovarian | 0.496 µM
Cc1nn(C(=O)Cc2ccccc2)c2c1C(c1ccccc1O)SC(N)=N2 (stereo unspecified) | OVCAR-8 ovarian | > 100 µM

* * *

# key: entry, value: TGI
Tested on: PC-3 prostate
Assay: NCI tumour cell line growth inhibition, 48 h

Molecule | TGI
O=[N+]([O-])C(=C(N1CCCCC1)N1CCCCC1)/C(Cl)=C(\Cl)Br | 60.3 µM
CSCCC(NCc1c(O)ccc2c(-c3ccccc3)cc(=O)oc12)C(=O)O (stereo not given) | > 100 µM
CN(C)NC(=S)Nc1ccccc1Br | > 100 µM
O=C(O)C1CC(c2ccc(F)cc2)=Nc2ccc(F)cc2S1 (stereo not given) | > 100 µM
COC(=O)c1c(C)cccc1/C=C1/Cc2c(C)cccc2C1=O | > 100 µM
O=C(Cn1ccc(=O)[nH]c1=O)Nc1ccc(C(=O)O)c(O)c1 | > 100 µM
O=C(Nc1cccc2cnccc12)c1cc2c(cc1Cl)Sc1nccn1S2(=O)=O | > 100 µM
CN(CCCN)CCCNc1nc2ccccc2c2[nH]c3ccccc3c12 | 1.28 µM
C[C@H](Nc1ncnc2nc[nH]c12)c1cc2cccc(Cl)c2c(=O)n1-c1ccccc1 | > 100 µM
CN1CCN(CCc2cccc(C(=O)c3cnn(-c4ccc(F)cc4)c3N)c2)CC1 | > 25 µM
CC(C)=CCc1c2c(c3occ(-c4ccc(O)c(O)c4)c(=O)c3c1O)C=CC(C)(C)O2 | 3.45 µM
CCOP(=O)(OCC)C1C(CO)OC(n2ccc(=O)[nH]c2=O)C1O (stereo not given) | > 100 µM
O=c1c2ncn(C3CC(O)C(CO)O3)c2nnn1Cc1ccccc1[N+](=O)[O-] (stereo not given) | > 100 µM
O=C(c1ccccc1)C1N=NCC1c1ccc([N+](=O)[O-])cc1 (stereo not given) | > 100 µM
COc1cc2c(cc1OC)C1c3ccccc3CCN1CC2 (stereo not given) | > 100 µM
C=C1[C@@H](O)C[C@@]23CC[C@@H]4[C@@]5(C)CC[C@@H](OC(C)=O)C(C)(C)[C@@H]5C[C@@H](OC5OC(COC(C)=O)C(O)C(O)C5O)[C@@]4(C)C2=CC[C@H]3[C@H]1C (stereo not given in full) | 13.9 µM
CNC(=O)c1cncc(/C=C/c2ccccc2C)c1 | > 25 µM
CC(=O)N/N=C1/NN(C(C)=O)C2(S1)C(=O)Nc1ccc(Br)cc12 (stereo not given) | > 100 µM
N#Cc1cnc2cc(OC[C@H](O)CO)c(NC(=O)CC3CSSC3)cc2c1Nc1ccc(OCc2cccc(F)c2)c(Cl)c1 | 0.451 µM
CCN(Cc1ccc(F)c(F)c1)c1ccc(CO)c(Cl)c1 | 27.4 µM
C[C@@H](C(=O)Nc1ccc(Cl)cc1)C1CCC(c2ccnc3ccc(F)cc23)CC1 (stereo not given in full) | > 100 µM
COc1cccc(/C=C/C(=O)c2cccc(Nc3nc(Nc4ccccc4)nc(Nc4ccccc4)n3)c2)c1 | > 67.2 µM
C=C(C)CCC(=O)[C@](C)(O)[C@H]1[C@H](O)C[C@@]2(C)[C@@H]3CCc4c(cc(OC5OC(CO)C(O)C(O)C5O)c(O)c4C)C3(C)C(=O)C[C@]12C (stereo not given in full) | > 100 µM
COc1ccc(C(=O)/C=C/c2ccc(/C=C/c3cc(OC)c(OC)c(OC)c3)cc2)cc1 | > 100 µM
O=CNc1c(Cl)cc2c(c1Cl)Cc1cc([N+](=O)[O-])ccc1-2 | > 100 µM
